Tgt: T1, cynomolgus TNFR2 (Macaca fascicularis, UniProt P20333 23-461 (human entry))
T1 construct: Stably overexpressed on HEK293T cells; also called cynoTNFR2
T1 chain: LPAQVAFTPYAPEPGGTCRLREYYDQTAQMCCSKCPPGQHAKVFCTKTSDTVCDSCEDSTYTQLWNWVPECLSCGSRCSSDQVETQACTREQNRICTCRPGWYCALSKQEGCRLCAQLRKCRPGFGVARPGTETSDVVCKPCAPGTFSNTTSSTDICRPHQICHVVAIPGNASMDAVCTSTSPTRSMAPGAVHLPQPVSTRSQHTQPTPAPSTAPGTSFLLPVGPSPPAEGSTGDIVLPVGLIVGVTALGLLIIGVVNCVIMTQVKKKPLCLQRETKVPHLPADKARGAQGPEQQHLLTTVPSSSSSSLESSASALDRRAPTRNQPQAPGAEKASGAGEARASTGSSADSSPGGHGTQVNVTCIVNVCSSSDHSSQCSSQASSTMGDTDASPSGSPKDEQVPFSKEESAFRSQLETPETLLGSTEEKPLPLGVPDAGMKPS
Test Name: flow cytometry on HEK293T cells stably overexpressing cynomolgus TNFR2
Parameter: binding result

[[record]]
binder = "R2_mAb-6 (antibody, V domains shown, also called R2-6) VH: QVQLVQSGAEVKKPGASVKVSCKASGYTFLSYGLSWVRQAPGQGLEWMGWINAYNGNTNYAQNLQDRVTMTTDTSTSTAYMELRSLRSDDMAVYYCARWDILTAYYSSDAFDIWGQGTMVTVSS VL: DIVMTQTPLSSPVTLGQPASISCRSSQSLVHSDGNTYLNWLQQRPGQPPRLLIYKVSNRFSGVPDRFSGSGAGTDFTLKISRVEAEDVGVYYCTQTTQFPITFGQGTRLEIK"
observed = "binds"

[[record]]
binder = "R2_mAb-2 (antibody, V domains shown, also called R2-2) VH: QVQLVQSGPEVKKPGASVKVSCKASGYTFTNYGISWVRQAPGQGLEWMGWINAYNGNTNYAQKLQGRVTMTTDTSTSTAYMELRSLRSDDTAVYYCARDGGYGSGTYHNDYYYYYGMDVWGQGTTVTVSS VL: EIVLTQSPDFQSMTPEEKVTITCRASQSIGSNLHWYQQKPDQSPKLLIKFASQSISGVPSRFSGSGSGTDFTLTINSLEAEDAATYYCHQSSSLPFTFGPGTKVDIK"
observed = "binds"

[[record]]
binder = "R2_mAb-1 (antibody, V domains shown, also called R2-1) VH: QVQLVESGGGVVQPGRSLRLSCAASGFTFSSYGMHWVRQAPGKGLEWVAVIWFDEDNKDYADSVKGRFTISRDNSKNTLYLQMSSLRAEDTAVYYCARDNDILTGYYYYYGMDVWGQGTTVTVSS VL: DIQLTQSPSFLSASVGDRVTITCRASQDISSYLAWYQQKPGKAPKLLIYAASTLQSGVPSRFSGSGSGTEFTLTISSLQPEDFATYYCQQLNSYPPTFGQGTKVEIK"
observed = "binds"

